Tested on: Corn
experiment: post-emergence herbicide test
Format: in vivo
testParameters: Zea mays, post-emergence, 0.0071 lb/A; read-out: % plant inhibition
From the text: Topsoil was placed in aluminum pans having holes in the bottom and compacted to a depth of 1.3 to 1.6 cm from the top of the pan. A predetermined number of seeds of each of several dicotyledonous and monocotyledonous annual plant species and/or vegetative propagules for the perennial plant species were placed on the soil and pressed into the soil surface. The seeds and/or vegetative propagules were covered with soil and leveled. […]
endpointLabel: inhibition at 7.95803 g/ha

See these solved cases before continuing.
[[record]]
compound = "C#CCOc1cc(-c2nn(C)c(C(F)(F)F)c2C)c(F)cc1Cl [Compound 39]"
experimentalvalue = "50%"

[[record]]
compound = "Cc1c(-c2cc(F)c([N+](=O)[O-])cc2F)nn(C)c1C(F)(F)F [Compound 35]"
experimentalvalue = "0%"

[[record]]
compound = "Cc1c(-c2cc(OCC(=O)OC(C)C)c(Cl)cc2F)nn(C)c1C(F)(F)F [Compound 38]"
experimentalvalue = "5%"


Form: compound = COc1cc(-c2nn(C)c(C(F)(F)F)c2C)c(F)cc1[N+](=O)[O-] [Compound 36] ; inhibition at 7.95803 g/ha = 0%

Lab book: inhibition at 7.95803 g/ha of COc1cc(-c2nn(C)c(C(F)(F)F)c2C)c(F)cc1Cl [Compound 37] noted as 5%

----------
Test system: Soybean
experiment: post-emergence herbicide test
Type: in vivo
testParameters: Glycine max, post-emergence, 4.5 lb/A; read-out: % plant inhibition
inhibition at 5043.82 g/ha by entry:
Quick note: number first, unit second.

Some solved cases for reference:
[[record]]
compound = "Cc1c(-c2cc(F)c([N+](=O)[O-])cc2F)nn(C)c1C(F)(F)F [Compound 35]"
experimentalvalue = "55%"

[[record]]
compound = "Cc1c(-c2cc(F)ccc2F)nn(C)c1C(F)(F)F [Compound 1]"
experimentalvalue = "0%"

[[record]]
compound = "Cc1c(-c2cc(O)c(Cl)cc2F)nn(C)c1C(F)(F)F [Compound 40]"
experimentalvalue = "80%"


Switching to the query record.
Kindly note the recorded inhibition at 5043.82 g/ha for Cn1nc(-c2cc(F)ccc2F)c(C=O)c1C(F)(F)F [Compound 34] , which is 15%

----------
System: Morning Glory
experiment: post-emergence herbicide test
Format: in vivo
testParameters: Ipomoea, post-emergence, 0.25 lb/A; read-out: % plant inhibition
Listed here: items and their measured inhibition at 280.212 g/ha.
Record the value in %, omitting the unit from your answer.

See these solved cases before continuing.
[[record]]
molecule = "C=CCOC(=O)c1cc(-c2nn(C)c(C(F)(F)F)c2C)c(F)cc1Cl [Compound 54]"
experimentalvalue = 80

[[record]]
molecule = "CCCCCOC(=O)c1cc(-c2nn(C)c(C(F)(F)F)c2C)c(F)cc1Cl [Compound 48]"
experimentalvalue = 75

[[record]]
molecule = "COC(=O)CSCc1cc(-c2nn(C)c(C(F)(F)F)c2C)c(F)cc1Cl [Compound 31]"
experimentalvalue = 80

[[record]]
molecule = "Cn1nc(-c2cc(C(=O)O)c(Cl)cc2F)c(C=O)c1C(F)(F)F [Compound 3]"
experimentalvalue = 25


inhibition at 280.212 g/ha measured on CCC(CC)COC(=O)c1cc(-c2nn(C)c(C(F)(F)F)c2C)c(F)cc1Cl [Compound 46] = 70

Form: molecule = Cc1c(-c2ccc(Cl)cc2)nn(C)c1C(F)(F)F [Compound 7] ; inhibition at 280.212 g/ha = 0
